- Experiment: in vitro
- Design: species or system HB2, HEK293
- Settings: human, ccd841 cells
Property Name: viability at 48 h, 10 µM (%)
Form entry: value (%) — number only.

{"Compound": "C=CC(=O)N1CCc2c(ncn(CC)c2=O)C1", "viability at 48 h, 10 µM [%]": 115}
{"Compound": "CC(NC(=O)CCl)c1ccc2c(c1)OCCO2 (stereo not shown)", "viability at 48 h, 10 µM [%]": 87.2}
{"Compound": "C=CC(=O)N1CCn2c(cc3ccc(Cl)cc32)C1", "viability at 48 h, 10 µM [%]": 102}
{"Compound": "Cl.O=C(CCl)Nc1cccnc1", "viability at 48 h, 10 µM [%]": 85.6}
{"Compound": "CN(Cc1ccc(Cl)s1)C(=O)CCl", "viability at 48 h, 10 µM [%]": 46.5}

Prompt: Requested field: viability at 48 h, 10 µM. Item: C=CC(=O)NCC1CCCCC1
Completion: 114

Prompt: Requested field: viability at 48 h, 10 µM. Item: Cc1cc(Br)ccc1NC(=O)CCl
Completion: 63.3

Prompt: Requested field: viability at 48 h, 10 µM. Item: C=CC(=O)N1CCN(C(=O)OCC(C)C)CC1
Completion: 80.1

Prompt: Requested field: viability at 48 h, 10 µM. Item: O=C(CCl)Nc1ccc(Cl)cc1C(=O)O
Completion: 104

Prompt: Requested field: viability at 48 h, 10 µM. Item: CCCNC(=O)NC(=O)CCl
Completion: 91.6

Prompt: Requested field: viability at 48 h, 10 µM. Item: O=C(CCl)N1N=C(c2ccco2)CC1c1cccs1 (stereo not shown)
Completion: 18.2

Prompt: Requested field: viability at 48 h, 10 µM. Item: CC(NC(=O)CCl)c1cccc2ccccc12 (stereo not shown)
Completion: 70.5

Prompt: Requested field: viability at 48 h, 10 µM. Item: Cl.O=C(CCl)N1CCN(Cc2ccc(Cl)s2)CC1
Completion: 37.3

###

- Experiment: in vitro
- Set-up: species or system HB2, CCD841
- Settings: human, hek293 cells
Property Name: viability at 48 h, 10 µM (%)
Form entry: value (%) — number only.

Consider the following illustrative entries.
{"Molecule": "CC(C)c1cc(NC(=O)CCl)on1", "Experimental Value": 70.6}
{"Molecule": "CC(C)(C)OC(=O)N1CCN(C(=O)CCl)CC1", "Experimental Value": 68.2}
{"Molecule": "O=C(CCl)N1N=C(c2cccs2)CC1c1ccco1 (centres unmarked)", "Experimental Value": 1.4}
{"Molecule": "C=CC(=O)N1CC(NC(=O)C(F)(F)F)CCC1C(F)(F)F (centres unmarked)", "Experimental Value": 110}
{"Molecule": "COc1cc(Cl)c(C)cc1NC(=O)CCl", "Experimental Value": 5.5}

Prompt: Requested field: viability at 48 h, 10 µM. Item: NS(=O)(=O)c1ccc(NC(=O)CCl)cc1
Completion: 8

Prompt: Requested field: viability at 48 h, 10 µM. Item: C=CC(=O)NC1c2ccccc2CC12CCOCC2 (centres unmarked)
Completion: 111

Prompt: Requested field: viability at 48 h, 10 µM. Item: O=C(CCl)Nc1ccc(N2CCOCC2)cc1
Completion: 57.2

Prompt: Requested field: viability at 48 h, 10 µM. Item: C=CC(=O)N1CCOc2ccccc21
Completion: 71.1

Prompt: Requested field: viability at 48 h, 10 µM. Item: CC1CCC(N(C(=O)CCl)C2CC2)CC1 (centres unmarked)
Completion: 6.8

Prompt: Requested field: viability at 48 h, 10 µM. Item: O=C(CCl)Nc1ccccc1F
Completion: 34.2
